Experiment: Cytostatic activity against human WI38 cells assessed as relative percent survival at 5 uM by MTT assay
Assay type: ADME, cell-based, WI-38
Details: read-out: Survival
value kind: viability at 5 µM (%)
The figure you give is taken to be in %; do not add the unit.

The value of viability at 5 µM measured for the molecule Nc1nc(-c2cccs2)c2ncn([C@H]3C[C@H](O)[C@@H](CO)O3)c2n1 turned out to be 92

###

Please provide measured IC50 for the entries that follow.
Test system: HT-1080
Experiment: Cytostatic activity against human HT1080 cells by MTT assay
Assay type: functional, cell-based
The figure you give is taken to be in µM; do not add the unit.

Here O=c1[nH]c(=O)n([C@H]2C[C@H](O)[C@@H](CO)O2)cc1F [FLOXURIDINE] was tested on HT-1080, and its IC50 came to 0.18

Here OC[C@H]1O[C@@H](n2cnc3c(-c4ccco4)ncnc32)C[C@@H]1O was tested on HT-1080, and its IC50 came to 330

Here Nc1nc(-c2cccs2)c2ncn([C@@H]3O[C@H](CO)[C@@H](O)[C@H]3O)c2n1 was tested on HT-1080, and its IC50 came to 88

Here OC[C@H]1O[C@@H](n2cnc3c(-c4cccs4)ccnc32)[C@H](O)[C@@H]1O was tested on HT-1080, and its IC50 came to 190

###

Assay: Cytostatic activity against human WI38 cells MTT assay
Assay type: ADME, cell-based
Settings: WI-38
value kind: pIC50
Keep it numeric: pIC50 is minus log10 of the concentration in mol/L.

The value of pIC50 measured for the compound OC[C@H]1O[C@@H](n2cnc3c(-c4cccs4)ncnc32)[C@H](O)[C@@H]1O turned out to be 5.24

The value of pIC50 measured for the compound OC[C@H]1O[C@@H](n2cnc3c(-c4cccs4)ccnc32)C[C@@H]1O turned out to be 3.72

The value of pIC50 measured for the compound O=c1[nH]c(=O)n([C@H]2C[C@H](O)[C@@H](CO)O2)cc1F turned out to be 3.30

The value of pIC50 measured for the compound Nc1nc(-c2cccs2)c2ncn([C@H]3C[C@H](O)[C@@H](CO)O3)c2n1 turned out to be 3.30

The value of pIC50 measured for the compound OC[C@H]1O[C@@H](n2cnc3c(-c4cccs4)ccnc32)[C@H](O)[C@@H]1O turned out to be 3.51

###

Tested on: HT-1080
Assay: Cytostatic activity against human HT1080 cells by MTT assay
Assay type: functional, cell-based
Please provide measured IC50 for the entries that follow.
The figure you give is taken to be in µM; do not add the unit.

The value of IC50 measured for the compound OC[C@H]1O[C@@H](n2cnc3c(-c4cccs4)ncnc32)[C@H](O)[C@@H]1O turned out to be 0.33

The value of IC50 measured for the compound OC[C@H]1O[C@@H](n2cnc3c(-c4cccs4)ccnc32)C[C@@H]1O turned out to be 56

The value of IC50 measured for the compound Nc1nc(-c2cccs2)c2ncn([C@H]3C[C@H](O)[C@@H](CO)O3)c2n1 turned out to be 38

The value of IC50 measured for the compound OC[C@H]1O[C@@H](n2cnc3c(-c4cccs4)ncnc32)C[C@@H]1O turned out to be 95

The value of IC50 measured for the compound Nc1nc(-c2ccco2)c2ncn([C@H]3C[C@H](O)[C@@H](CO)O3)c2n1 turned out to be 290
